Tested on: Daoy (Other Solid Carcinomas)
PROTOCOL_NOTES: combination Emax (second highest fraction inhibited in the dose matrix, 72 h); higher = more inhibition; extreme values may be limits of the assay
Note to self: values exactly at 0.4 are Met. So combination Emax at or above 0.4 is Met, below is Not met.

Task: Kindly determine if combination Emax recorded for CN(C)CCCOc1ccc(-c2ccc3ncc4c(c3c2)n(C2CCOCC2)c(=O)n4C)cn1 [AZD0156] + C[C@@H]1COCCN1C2=NC(=NC(=C2)C3(CC3)[S@](=N)(=O)C)C4=C5C=CNC5=NC=C4 [AZD6738] (first compound max 1 µM, 7x7, partner max 10 µM) is above or exactly 0.4.
Output: Met

Task: Subsequent entry: C[C@@H](c1ccc2nccn2c1)n1nnc2ncc(-c3cnn(C)c3)nc21 [Savolitinib] + CC1(C)CCC(CN2CCN(c3ccc(C(=O)NS(=O)(=O)c4ccc(NCC5CCOCC5)c([N+](=O)[O-])c4)c(Oc4cnc5[nH]ccc5c4)c3)CC2)=C(c2ccc(Cl)cc2)C1 [Venetoclax] (first compound max 1 µM, 7x7, partner max 1 µM)
Output: Not met

Task: Subsequent entry: COc1cc2ncnc(Nc3ccc(F)c(Cl)c3)c2cc1OCCCN1CCOCC1 [Gefitinib] + CC(C)n1c(=O)n(C)c2cnc3cc(F)c(-c4ccc(OCCCN5CCCCC5)nc4)cc3c21 [AZD1390] (first compound max 10 µM, 7x7, partner max 0.3 µM)
Output: Not met

Task: Subsequent entry: Cc1cc2ncnn2cc1Nc1ncc2c(n1)n(C1CCOCC1)c(=O)n2C [AZD7648] + C=CCn1c(=O)c2cnc(Nc3ccc(N4CCN(C)CC4)cc3)nc2n1-c1cccc(C(C)(C)O)n1 [AZD1775] (first compound max 10 µM, partner max 1 µM)
Output: Met

Task: Subsequent entry: Cc1cc2ncnn2cc1Nc1ncc2c(n1)n(C1CCOCC1)c(=O)n2C [AZD7648] + CN(C)CCCOc1ccc(-c2ccc3ncc4c(c3c2)n(C2CCOCC2)c(=O)n4C)cn1 [AZD0156] (first compound max 10 µM, 7x7, partner max 1 µM)
Output: Not met

Task: Subsequent entry: COc1cc2c(cc1OCCCCCOc1cc3c(cc1OC)C(=O)N1C=C(C)C[C@H]1C=N3)N=C[C@@H]1CC(C)=CN1C2=O [SG3199] + O=C(c1cc(Cc2n[nH]c(=O)c3ccccc23)ccc1F)N1CCN(C(=O)C2CC2)CC1 [Olaparib] (first compound max 0.001 µM, 7x7, partner max 10 µM)
Output: Met
